This collection of values is drawn from ChEMBL document CHEMBL1142461.

Entries annotated with measured pIC50
# Tested on: ACHN
# assay_method_text: Antiproliferative activity against human ACHN cells after 48 hrs by sulforhodamine B assay
# Format: functional, cell-based
Worth noting: pIC50 values are minus log10 of concentrations stated in mol/L.

Worked set:
1) COc1ccc(-c2cc(=O)c3c(O)c(OC)c(O[C@@H]4O[C@H](CO[C@@H]5O[C@@H](C)[C@H](O)[C@@H](O)[C@H]5O)[C@@H](O)[C@H](O)[C@H]4O)cc3o2)cc1 [PECTOLINARIN] : 4.76
2) CCN(CC)CCOc1cc2oc(-c3ccc(OC)cc3)cc(=O)c2c(O)c1OC : 4.27
3) COc1ccc(-c2cc(=O)c3c(O)c(OC)c(OCCN4CCCC4)cc3o2)cc1 : 4.90
4) COc1ccc(-c2cc(=O)c3c(O)c(OC)c(OCCN4CCOCC4)cc3o2)cc1 : 4.25
5) COc1ccc(-c2cc(=O)c3c(O)c(OC)c(OCCCN(C)C)cc3o2)cc1 : 4.97

Prompt: Give pIC50 only, for COc1ccc(-c2cc(=O)c3c(O)c(OC)c(O)cc3o2)cc1 [PECTOLINARIGENIN] , using ACHN data.
Completion: 4.82

Prompt: Give pIC50 only, for COc1ccc(-c2cc(=O)c3c(O)c(OC)c(OCCN(C)C)cc3o2)cc1 , using ACHN data.
Completion: 4.98

Prompt: Give pIC50 only, for COc1ccc(-c2cc(=O)c3c(O)c(OC)c(OCCN4CCCCC4)cc3o2)cc1 , using ACHN data.
Completion: 4.03

----------
# assay_method_text: Partition coefficient, log P of the compound
# Assay type: physicochemical
# measurement_parameters: octanol/water
Label yes for high-side logP (at or above 2) and no for low-side logP (below it).

Consider the following illustrative entries.
1. COc1ccc(-c2cc(=O)c3c(O)c(OC)c(OCCCN(C)C)cc3o2)cc1 : yes
2. COc1ccc(-c2cc(=O)c3c(O)c(OC)c(O[C@@H]4O[C@H](CO[C@@H]5O[C@@H](C)[C@H](O)[C@@H](O)[C@H]5O)[C@@H](O)[C@H](O)[C@H]4O)cc3o2)cc1 : no
3. COc1ccc(-c2cc(=O)c3c(O)c(OC)c(OCCN4CCOCC4)cc3o2)cc1 : no
4. COc1ccc(-c2cc(=O)c3c(O)c(OC)c(OCCN(C)C)cc3o2)cc1 : yes

Prompt: Check this molecule for logP at or above 2: COc1ccc(-c2cc(=O)c3c(O)c(OC)c(OCCN4CCCC4)cc3o2)cc1
Completion: yes

Prompt: Check this molecule for logP at or above 2: CCN(CC)CCOc1cc2oc(-c3ccc(OC)cc3)cc(=O)c2c(O)c1OC
Completion: yes

Prompt: Check this molecule for logP at or above 2: COc1ccc(-c2cc(=O)c3c(O)c(OC)c(OCCN4CCCCC4)cc3o2)cc1
Completion: yes

----------
# Test system: A-375
# assay_method_text: Antiproliferative activity against human A375 cells after 48 hrs by sulforhodamine B assay
# Type: functional, cell-based
# measurement_parameters: A-375, 48 h
experimental_endpoint: IC50 (µM)
Numbers only; they are read as µM.

1. COc1ccc(-c2cc(=O)c3c(O)c(OC)c(OCCN4CCCC4)cc3o2)cc1 : 38.6
2. COc1ccc(-c2cc(=O)c3c(O)c(OC)c(OCCCN(C)C)cc3o2)cc1 : 7.7
3. COc1ccc(-c2cc(=O)c3c(O)c(OC)c(OCCN4CCOCC4)cc3o2)cc1 : 58.8

Prompt: Complete the entry with IC50 for COc1ccc(-c2cc(=O)c3c(O)c(OC)c(O)cc3o2)cc1 [PECTOLINARIGENIN]
Completion: 8.2

Prompt: Complete the entry with IC50 for COc1ccc(-c2cc(=O)c3c(O)c(OC)c(OCCN4CCCCC4)cc3o2)cc1
Completion: 52.3

Prompt: Complete the entry with IC50 for COc1ccc(-c2cc(=O)c3c(O)c(OC)c(O[C@@H]4O[C@H](CO[C@@H]5O[C@@H](C)[C@H](O)[C@@H](O)[C@H]5O)[C@@H](O)[C@H](O)[C@H]4O)cc3o2)cc1 [PECTOLINARIN]
Completion: 32.9

----------
# Test system: Caco-2
# assay_method_text: Antiproliferative activity against human Caco-2 cells after 48 hrs by sulforhodamine B assay
# Format: functional, cell-based
# measurement_parameters: Caco-2, 48 h
pIC50: −log10 of the molar value.
experimental_endpoint: pIC50

Worked set:
1) COc1ccc(-c2cc(=O)c3c(O)c(OC)c(OCCN4CCOCC4)cc3o2)cc1 : < 4.00
2) CCN(CC)CCOc1cc2oc(-c3ccc(OC)cc3)cc(=O)c2c(O)c1OC : < 4.00
3) COc1ccc(-c2cc(=O)c3c(O)c(OC)c(O[C@@H]4O[C@H](CO[C@@H]5O[C@@H](C)[C@H](O)[C@@H](O)[C@H]5O)[C@@H](O)[C@H](O)[C@H]4O)cc3o2)cc1 : 5.21
4) COc1ccc(-c2cc(=O)c3c(O)c(OC)c(O)cc3o2)cc1 : 5.28
5) COc1ccc(-c2cc(=O)c3c(O)c(OC)c(OCCCN(C)C)cc3o2)cc1 : < 4.00
6) COc1ccc(-c2cc(=O)c3c(O)c(OC)c(OCCN4CCCCC4)cc3o2)cc1 : 4.10
7) COc1ccc(-c2cc(=O)c3c(O)c(OC)c(OCCN(C)C)cc3o2)cc1 : < 4.00

// moving on: another record for pIC50
Prompt: Complete the entry with pIC50 for COc1ccc(-c2cc(=O)c3c(O)c(OC)c(OCCN4CCCC4)cc3o2)cc1
Completion: < 4.00
